measured.target: 72 kDa type IV collagenase (Homo sapiens)
Sequence (P08253 whole entry): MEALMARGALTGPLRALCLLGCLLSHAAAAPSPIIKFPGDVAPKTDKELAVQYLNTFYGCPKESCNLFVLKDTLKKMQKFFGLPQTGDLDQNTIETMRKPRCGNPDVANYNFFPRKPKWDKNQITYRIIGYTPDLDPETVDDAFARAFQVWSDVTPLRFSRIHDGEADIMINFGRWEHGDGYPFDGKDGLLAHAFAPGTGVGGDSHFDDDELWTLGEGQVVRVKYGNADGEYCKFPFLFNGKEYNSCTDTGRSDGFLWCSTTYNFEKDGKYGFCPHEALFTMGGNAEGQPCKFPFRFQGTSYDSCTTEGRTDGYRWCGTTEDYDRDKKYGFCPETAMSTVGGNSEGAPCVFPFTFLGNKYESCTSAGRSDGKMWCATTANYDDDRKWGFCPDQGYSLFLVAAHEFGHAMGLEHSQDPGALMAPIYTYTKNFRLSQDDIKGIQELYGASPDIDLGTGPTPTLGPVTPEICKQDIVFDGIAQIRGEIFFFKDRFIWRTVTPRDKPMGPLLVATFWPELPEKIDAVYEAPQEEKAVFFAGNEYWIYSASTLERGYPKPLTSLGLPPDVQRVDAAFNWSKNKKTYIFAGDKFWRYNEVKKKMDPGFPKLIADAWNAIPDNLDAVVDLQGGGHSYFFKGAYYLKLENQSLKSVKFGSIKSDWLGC
quantity.measured: Ki (nM)

input.smiles | quantity.measured | numeric.value
COc1ccc2c(c1)NCN([C@H](C)C(=O)NO)S2(=O)=O | Ki | 312
CC(C)C[C@H](C(=O)NO)N1CCNc2cc(O)ccc2S1(=O)=O | Ki | 11
Cc1cc(COc2ccc3c(c2)NCCN([C@H](C)C(=O)NO)S3(=O)=O)cc(C)n1 | Ki | 75
Cc1nc(COc2ccc3c(c2)NCCN([C@@H](C(=O)NO)C(C)C)S3(=O)=O)sc1C | Ki | 361

###

measured.target: Matrix metalloproteinase-9 (Homo sapiens, UniProt P14780)
Sequence (P14780 whole entry): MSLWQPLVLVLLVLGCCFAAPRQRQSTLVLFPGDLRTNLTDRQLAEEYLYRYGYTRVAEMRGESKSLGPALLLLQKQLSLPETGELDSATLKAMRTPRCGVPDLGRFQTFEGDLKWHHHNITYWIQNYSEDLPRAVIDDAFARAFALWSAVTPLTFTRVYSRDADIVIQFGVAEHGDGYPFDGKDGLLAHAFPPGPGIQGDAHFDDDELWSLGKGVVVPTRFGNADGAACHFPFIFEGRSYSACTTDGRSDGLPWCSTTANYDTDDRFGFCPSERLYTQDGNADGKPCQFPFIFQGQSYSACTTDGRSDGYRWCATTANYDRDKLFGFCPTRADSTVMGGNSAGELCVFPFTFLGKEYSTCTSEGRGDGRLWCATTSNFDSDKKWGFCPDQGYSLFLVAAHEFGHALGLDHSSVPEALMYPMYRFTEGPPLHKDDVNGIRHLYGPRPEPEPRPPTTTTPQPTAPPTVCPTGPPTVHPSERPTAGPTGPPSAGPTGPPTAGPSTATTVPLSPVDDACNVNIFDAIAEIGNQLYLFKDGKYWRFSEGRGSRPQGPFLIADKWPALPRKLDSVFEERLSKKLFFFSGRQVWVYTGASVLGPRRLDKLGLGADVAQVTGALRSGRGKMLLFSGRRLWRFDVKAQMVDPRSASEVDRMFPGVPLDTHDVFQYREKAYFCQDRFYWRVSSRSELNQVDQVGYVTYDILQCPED
assay.procedure: In vitro inhibitory activity against broad spectrum matrix metalloprotease-9 (MMP-9)
pKi: −log10 of the molar value.
quantity.measured: pKi

input.smiles | relation.operator | numeric.value
C[C@H](C(=O)NO)N1CCNc2cc(-c3ccccc3C(F)(F)F)ccc2S1(=O)=O | < | 5.67
CC(C)C[C@H](C(=O)NO)N1CCNc2cc(OCc3ccccc3)ccc2S1(=O)=O | > | 8.68
COc1ccc(Oc2ccc3c(c2)NCCN([C@H](C)C(=O)NO)S3(=O)=O)cc1 | > | 8.68
C[C@H](C(=O)NO)N1CCNc2cc(Oc3cccc([N+](=O)[O-])c3)ccc2S1(=O)=O | = | 7.02
C[C@H](C(=O)NO)N1CCNc2cc(OCc3cc(Cl)cc(Cl)c3)ccc2S1(=O)=O | = | 5.92
Cc1nc(COc2ccc3c(c2)NCCN([C@@H](C(=O)NO)C(C)C)S3(=O)=O)sc1C | < | 5.67
COc1ccc2c(c1)NCCN([C@@H](C(=O)NO)C(C)C)S2(=O)=O | = | 6.12
Cc1cc(COc2ccc3c(c2)NCCN([C@H](C)C(=O)NO)S3(=O)=O)cc(C)n1 | = | 5.74
COc1ccc2c(c1)NCN([C@H](C)C(=O)NO)S2(=O)=O | = | 5.98
CCOc1cc(COc2ccc3c(c2)NCCN([C@H](C)C(=O)NO)S3(=O)=O)cc(OCC)c1 | < | 5.67
C[C@H](C(=O)NO)N1CCNc2cc(Oc3ccc([N+](=O)[O-])cc3)ccc2S1(=O)=O | = | 7.72
